Target: T1, biotin-Aβ1-20 (biotin (position not given))
T1 peptide: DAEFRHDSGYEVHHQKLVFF
Test: BIACORE, biotin-Aβ1-20 as antigen; column IgG1#1

binder | Kd [nM]
20C2-9A, affinity matured humanized 20C2, IgG1 humanized A version (antibody, V domains shown, also called SJ-p2-51) VH: QVTLKESGPALVKPTQTLTLTCTFSGFSLSTSGMGVGWIRQPPGKALEWLAHIWWDDDKSYNPSLKSRLTISKDTSKNQVVLTMTNMDPVDTATYYCARRQLGLRSIDAMDYWGQGTTVTVSS VL: DVVMTQSPLSLPVTPGEPASISCRSSQSILHSNGNTYLEWYLQKPGQSPQLLIYKVSNRFSGVPDRFSGSGSGTDFTLKISRVEAEDVGVYYCVQTSLVPLTFGQGTKLEIKR | 0.241
